target: 5-hydroxytryptamine receptor 7 (Homo sapiens, UniProt P34969); format: functional, cell-based, HEK293
Sequence (P34969 whole entry): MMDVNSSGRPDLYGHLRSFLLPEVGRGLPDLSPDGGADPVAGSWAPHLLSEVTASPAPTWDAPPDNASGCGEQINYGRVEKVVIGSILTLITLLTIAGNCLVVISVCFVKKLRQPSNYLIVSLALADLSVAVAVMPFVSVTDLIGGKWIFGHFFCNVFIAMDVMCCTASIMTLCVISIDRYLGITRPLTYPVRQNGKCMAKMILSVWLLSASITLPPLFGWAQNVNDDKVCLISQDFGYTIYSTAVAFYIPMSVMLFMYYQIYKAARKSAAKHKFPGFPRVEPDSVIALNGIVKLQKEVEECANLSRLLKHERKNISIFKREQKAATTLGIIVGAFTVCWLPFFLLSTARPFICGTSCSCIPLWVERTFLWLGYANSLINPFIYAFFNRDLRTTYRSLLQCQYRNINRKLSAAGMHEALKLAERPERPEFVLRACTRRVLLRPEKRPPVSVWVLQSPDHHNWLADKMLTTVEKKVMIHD
Parameter IC50: see the listing below.
Note: unit nM is implicit; provide only the numeric part.

Some solved cases for reference:
CC1(c2ccc(F)cc2)NC(=O)N(CC(O)CN2CCN(c3ccccc3C#N)CC2)C1=O (configuration not stated)    343
Cc1ccc(C)c(N2CCN(CC(O)CN3C(=O)NC(C)(c4ccc(F)cc4)C3=O)CC2)c1 (configuration not stated)    1010
CC1(c2ccc(F)cc2)NC(=O)N(CC(O)CN2CCN(C(c3ccccc3)c3ccccc3)CC2)C1=O (configuration not stated)    1810
CCOc1ccccc1N1CCN(CC(O)CN2C(=O)NC(C)(c3ccc(F)cc3)C2=O)CC1 (configuration not stated)    81
CC1(c2ccc(F)cc2)NC(=O)N(CC(O)CN2CCN(c3ccc(Cl)c(Cl)c3)CC2)C1=O (configuration not stated)    24000

The compound listed as COc1cccc(N2CCN(CC(O)CN3C(=O)NC(C)(c4ccc(F)cc4)C3=O)CC2)c1 (configuration not stated) has a reported IC50 of 5940

The compound listed as CC1(c2ccc(F)cc2)NC(=O)N(CC(O)CN2CCN(c3cccc(Cl)c3Cl)CC2)C1=O (configuration not stated) has a reported IC50 of 1390
